For each entry below, report its Kd value.
- system-under-test: MBP-fused PDZ domain of HTRA1 (human, UniProt Q92743 365-467)
- Sequence (Q92743 365-467): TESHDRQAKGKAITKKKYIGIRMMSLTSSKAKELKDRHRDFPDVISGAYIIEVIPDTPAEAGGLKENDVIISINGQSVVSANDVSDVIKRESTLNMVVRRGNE
- method-description: fluorescence polarisation
Where no end group is shown, it is not given here.
Numbers only here, please. The scale is µM.

**Q:** Sample RSK1 683-735 peptide, unphosphorylated (peptide, UniProt Q15418 683-735, looked up) peptide: QSQLSHQDLQLVKGAMAATYSALNSSKPTPQLKPIESSILAQRRVRKLPSTTL — what was its Kd?
**A:** 19

**Q:** Entry RSK1 683-735 peptide, phosphorylated (peptide, UniProt Q15418 683-735, looked up, also: monophosphorylated, site not given here) peptide: QSQLSHQDLQLVKGAMAATYSALNSSKPTPQLKPIESSILAQRRVRKLPSTTL has what Kd?
**A:** 33
